Provenance of the data: the supplement of paper PMC10065799

- measurement-target: FGFR1 (UniProt P11362)
- Sequence (P11362 whole entry, looked up): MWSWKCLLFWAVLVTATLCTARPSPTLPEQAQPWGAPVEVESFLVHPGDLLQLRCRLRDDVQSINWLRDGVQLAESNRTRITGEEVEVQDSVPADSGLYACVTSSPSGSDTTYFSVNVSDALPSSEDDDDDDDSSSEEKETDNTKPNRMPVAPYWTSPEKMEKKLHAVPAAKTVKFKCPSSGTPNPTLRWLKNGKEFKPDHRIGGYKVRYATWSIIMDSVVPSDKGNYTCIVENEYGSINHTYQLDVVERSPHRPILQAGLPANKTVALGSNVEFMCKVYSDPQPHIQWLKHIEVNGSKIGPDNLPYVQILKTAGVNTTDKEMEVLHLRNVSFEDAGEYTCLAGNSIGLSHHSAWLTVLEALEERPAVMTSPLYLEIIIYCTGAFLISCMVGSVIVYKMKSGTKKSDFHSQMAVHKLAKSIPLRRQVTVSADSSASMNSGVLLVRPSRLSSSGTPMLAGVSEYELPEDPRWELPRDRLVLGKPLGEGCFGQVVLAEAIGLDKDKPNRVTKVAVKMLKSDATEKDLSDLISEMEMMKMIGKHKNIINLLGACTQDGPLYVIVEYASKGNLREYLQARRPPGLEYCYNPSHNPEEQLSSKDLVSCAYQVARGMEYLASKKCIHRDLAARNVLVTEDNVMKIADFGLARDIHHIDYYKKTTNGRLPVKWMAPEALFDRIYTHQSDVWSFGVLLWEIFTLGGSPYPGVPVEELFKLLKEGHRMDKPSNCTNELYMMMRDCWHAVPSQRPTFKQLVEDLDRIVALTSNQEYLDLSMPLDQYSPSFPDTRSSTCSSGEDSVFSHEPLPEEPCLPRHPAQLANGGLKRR
- assay-explanation: phosphorylation enrichment, bacterial display (enrichment ratio); higher = better substrate or ligand; peptides without Tyr show the background;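 also: 11-residue human phosphosite peptides and single-mutation variants displayed on the E. coli surface, counted by deep sequencing, each peptide's frequency after selection divided by its frequency in the unselected input library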;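 also: frequency after pTyr selection over input frequency; kinase dosed for 20-30% of maximal phosphorylation in three min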
For each record, write down the corresponding phosphorylation enrichment.
# print the numeric value only

Exercise: Reported phosphorylation enrichment for LFLALYTGLVH [PIGB_Y402] : what is it?
Solution: 0.775

Exercise: Entry PYVYYYSYLLK [PTEN_Y178_R173P] has what phosphorylation enrichment?
Solution: 6.02

Exercise: Name the recorded phosphorylation enrichment for SSSNPYSTVTV [ACTN2_Y599_M604V] .
Solution: 0.745

Exercise: I would be grateful if you could share the reported phosphorylation enrichment for MENFIYESMQF [CYP19A1_Y361_R365Q_YF] .
Solution: 0.888

Exercise: Recorded phosphorylation enrichment for SLAARYYNWVS [FLT4_Y1230] , please?
Solution: 5.38

Exercise: Name the reported phosphorylation enrichment value associated with the sequence AFLLLCFNDTH [BMP15_Y235_Y235C]
Solution: 0.501

Exercise: Find the recorded phosphorylation enrichment belonging to VPVPGYTKVPE [SPRR3_Y146_L149V] and report it.
Solution: 0.437

----------
Give measured phosphorylation enrichment for each item. Keep answers brief.
- System: c-Src
- assay-explanation: phosphorylation enrichment, bacterial display (enrichment ratio); higher = better substrate or ligand; peptides without Tyr show the background
Keep it simple and answer with nothing but the number.

Exercise: Consider the sequence shown here: PIGRKYKKVRF [F8_Y442_R437P] What is its recorded phosphorylation enrichment?
Solution: 0.587

Exercise: Fill in the blank: the reported phosphorylation enrichment of STLEVYSCHPP [IL21R_Y317] is ____.
Solution: 1.65

Exercise: Reported phosphorylation enrichment, sequence TRSYDYMEGED [FGF7_Y58_G62E] : ____
Solution: 0.574

Exercise: Form field: reported phosphorylation enrichment of RPPFTYATLIR [FOXP3_Y342]
Solution: 3.29

Exercise: Item under review: DFDHSYFFIAT [ESD_Y262_G257D_YF] . Reported phosphorylation enrichment?
Solution: 0.738

----------
- measurement-target: FGFR1 (UniProt P11362)
- assay-explanation: phosphorylation enrichment, bacterial display (enrichment ratio); higher = better substrate or ligand; peptides without Tyr show the background
reported-property: phosphorylation enrichment

Exercise: // query phosphorylation enrichment value for entry SYTDPYAQPSL [KMT2D_Y2378_P2382S]
Solution: 3.11

Exercise: Using the record for LEGAKYVSHGA [ASS1_Y113_R108L] , report its phosphorylation enrichment.
Solution: 1

Exercise: Look up phosphorylation enrichment: RYMELYDLNRD [BBS2_Y648]
Solution: 1.04

----------
- measurement-target: EPHB1 (UniProt P54762)
- Sequence (P54762 whole entry, looked up): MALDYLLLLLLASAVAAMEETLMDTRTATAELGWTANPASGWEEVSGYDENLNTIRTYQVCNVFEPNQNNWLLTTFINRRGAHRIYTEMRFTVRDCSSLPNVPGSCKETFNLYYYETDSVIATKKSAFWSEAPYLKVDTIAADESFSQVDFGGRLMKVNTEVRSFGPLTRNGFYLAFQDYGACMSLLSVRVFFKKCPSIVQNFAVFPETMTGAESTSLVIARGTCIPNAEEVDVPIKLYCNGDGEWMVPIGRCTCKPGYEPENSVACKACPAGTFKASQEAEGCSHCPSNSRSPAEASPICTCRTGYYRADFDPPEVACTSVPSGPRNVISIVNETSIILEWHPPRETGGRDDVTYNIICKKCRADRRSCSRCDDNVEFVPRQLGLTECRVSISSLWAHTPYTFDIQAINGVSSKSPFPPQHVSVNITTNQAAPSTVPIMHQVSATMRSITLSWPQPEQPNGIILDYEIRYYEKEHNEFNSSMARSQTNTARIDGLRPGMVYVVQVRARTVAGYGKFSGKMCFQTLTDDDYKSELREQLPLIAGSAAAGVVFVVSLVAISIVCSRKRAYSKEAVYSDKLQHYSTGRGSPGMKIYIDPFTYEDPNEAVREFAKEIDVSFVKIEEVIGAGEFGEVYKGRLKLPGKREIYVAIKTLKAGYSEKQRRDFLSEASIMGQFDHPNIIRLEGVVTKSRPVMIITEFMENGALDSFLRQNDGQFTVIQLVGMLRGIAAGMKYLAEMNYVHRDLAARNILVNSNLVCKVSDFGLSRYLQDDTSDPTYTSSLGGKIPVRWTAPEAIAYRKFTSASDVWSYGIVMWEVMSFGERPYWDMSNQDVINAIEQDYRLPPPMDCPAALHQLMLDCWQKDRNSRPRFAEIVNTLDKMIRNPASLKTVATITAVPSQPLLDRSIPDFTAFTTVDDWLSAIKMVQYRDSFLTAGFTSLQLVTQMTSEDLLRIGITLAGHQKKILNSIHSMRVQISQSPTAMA
- assay-explanation: phosphorylation enrichment, bacterial display (enrichment ratio); higher = better substrate or ligand; peptides without Tyr show the background
Can you tell me phosphorylation enrichment for the items I'm about to list?
Keep it simple and answer with nothing but the number.

Exercise: So what's the measured phosphorylation enrichment for this one? PICEGYALPHA [ACTC1_Y171_Y168C]
Solution: 0.488

Exercise: // query phosphorylation enrichment value for entry AKKKMYSCKTK [AGXT_Y231_R233C]
Solution: 0.62

Exercise: Sample RQRTAYFSLDT [CDH1_Y68] — what was its phosphorylation enrichment?
Solution: 0.426

Exercise: # phosphorylation enrichment lookup, item ATYRGYDSDNP [MMUT_Y146_H143Y]
Solution: 0.427

Exercise: What value of phosphorylation enrichment has been reported for the following sequence? TNLVPYPCIHF [TUBA1A_Y262_R264C]
Solution: 0.599

Exercise: Give its phosphorylation enrichment value. Item: SGFESYGSSSF [RPA2_Y9_YF]
Solution: 0.433

Exercise: Dear colleague, I am looking for the recorded phosphorylation enrichment of the following sequence: EVVGRYSVHNA [MLH1_Y183]
Solution: 0.437

Exercise: Which phosphorylation enrichment value is on record for AAVPAYDKIQV [STXBP2_Y401_R405Q] ?
Solution: 0.793

Exercise: Need phosphorylation enrichment, item GRLFAYPDTHR [CAT_Y358]
Solution: 0.49

Exercise: Param item = DKANRYFSPNV [PTEN_Y336_F341V] ; retrieve measured phosphorylation enrichment.
Solution: 0.297

Exercise: I would be grateful if you could share the reported phosphorylation enrichment for KRFAFYRDSPR [FOXE3_Y108_E103K] .
Solution: 0.327

Exercise: Name the recorded phosphorylation enrichment for SNNYIYTTLGV [FAM83B_Y639_K640T] .
Solution: 7.5

Exercise: Please give the measured phosphorylation enrichment for this sequence: RDGDRYFKGIV [DCX_Y64_N60D]
Solution: 0.343

Exercise: Which phosphorylation enrichment is listed for LLKAGYQGVLR [TTPA_Y100_H101Q] ?
Solution: 0.648

Exercise: Sample MENFIYESMQY [CYP19A1_Y361_R365Q] — what was its phosphorylation enrichment?
Solution: 7.15

Exercise: Any idea what its phosphorylation enrichment is? The sequence is VVTGPYEKPSL [KIR3DS1_Y221_L220P]
Solution: 0.55

Exercise: Query: phosphorylation enrichment; subject: VGNAAYQAGSL [STK36_Y1181_P1185S]
Solution: 0.437

Exercise: Consider the sequence shown here: RFLERYIYNRE [HLA-DPB1_Y57] What is its recorded phosphorylation enrichment?
Solution: 0.852

Exercise: Item TLSGTYQFIIA [FOXL2_Y81_I80T_YF] has what recorded phosphorylation enrichment?
Solution: 1.31

Exercise: Could you share which phosphorylation enrichment value was measured for TVLEHYRRTHC [MYBPC3_Y1119] ?
Solution: 0.468

Exercise: I would be grateful if you could share the reported phosphorylation enrichment for GGQVFHNSEFG [FLT4_Y1333_Y1333H_YF] .
Solution: 0.4

Exercise: I would be grateful if you could share the reported phosphorylation enrichment for IDDLEYLHSQG [STK11_Y166_G163D] .
Solution: 0.638

Exercise: Could you share which phosphorylation enrichment value was measured for FLGKGYSDGGC [MC4R_Y35_S30F] ?
Solution: 0.503
